- protocol_summary: chemical genetic growth profiling, strain panel (AID 1159580);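 further: tested at 20 µM; growth read once vehicle control cultures reached saturation at 30 °C; 1 = growth at the plate median or of vehicle wells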
- details: S. cerevisiae deletion strains, growth OD, locus YHR079C, strain IRE1
The whole screen tested about 5,500 compounds, of which about 2,000 (36%) were called active. About 18% were inconclusive and are not listed. No stated cut-off is given here; in the data, active means normalized growth mostly below about 0.91 (no sharp cut-off); inconclusive means no clear call, values can overlap the other calls; inactive means mostly above about 0.92. This is one part of the list.
Classes used: active, inactive

- compound: "Oc1c(Br)cc(Br)cc1/C=N\\n1cnnc1"
  class: "active"
- compound: "COC1=CC(=O)C(C(=O)c2ccccc2)=CC1=O"
  class: "inactive"
- compound: "COC1=CC(=O)C(O)=C/C1=C\\C=C\\c1ccccc1"
  class: "active"
- compound: "NC(=O)NCCCC(N)C(=O)O (stereo unspecified)"
  class: "inactive"
- compound: "Oc1c(Cl)cc(Cl)cc1C=Nc1ccc(Sc2ccccc2)nc1Sc1ccccc1"
  class: "active"
- compound: "O=C(Nc1ccccc1)Nc1ccc(Cl)cc1[N+](=O)[O-]"
  class: "inactive"

* * *

Measured normalized growth of individual entries
- protocol_summary: chemical genetic growth profiling, strain panel (AID 1159580);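 further: tested at 20 µM; growth read once vehicle control cultures reached saturation at 30 °C; 1 = growth at the plate median or of vehicle wells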
- details: S. cerevisiae deletion strains, growth OD, locus YLR039C, strain RIC1, stronger effect = lower value
In all, about 5,500 compounds went through this assay and about 2,000 (36%) were called active. About 18% were inconclusive and are not listed. This is one part of the list.

- compound: "O=c1c(O)c(-c2cc(O)c(O)c(O)c2)oc2cc(O)cc(O)c12"
  normalized growth: 1
- compound: "COc1ccc(-c2oc3c(CC=C(C)C)c(O[C@@H]4O[C@H](CO)[C@@H](O)[C@H](O)[C@H]4O)cc(O)c3c(=O)c2O[C@@H]2O[C@@H](C)[C@H](O)[C@@H](O)[C@H]2O)cc1"
  normalized growth: 1.01
- compound: "NC(=O)c1ncn([C@@H]2O[C@H](CO)[C@@H](O)[C@H]2O)n1"
  normalized growth: 1.01
- compound: "COc1c(C(C)C)oc2cc3oc(=O)ccc3cc12"
  normalized growth: 0.944
- compound: "COc1cccc2c(C)cc(=O)[nH]c12"
  normalized growth: 0.697
- compound: "CC(C)c1c(O)ccc2c1CCC1C(C)(C)CCC[C@]21C (stereo partly specified)"
  normalized growth: 0.127
- compound: "CC[n+]1c(-c2ccccc2)c2cc(N)ccc2c2ccc(N)cc21"
  normalized growth: 0.771
- compound: "Cc1cc(I)c(C)cc1I"
  normalized growth: 0.955
- compound: "CCOC(=O)c1sc(SC(C)C)c2c1CCCC2=O"
  normalized growth: 0.785
- compound: "Cc1[nH]ccc2c1[nH]c1cc(=O)ccc12"
  normalized growth: 1.06
- compound: "COc1c2ccoc2cc2oc(=O)ccc12"
  normalized growth: 0.906

* * *

- protocol_summary: chemical genetic growth profiling, strain panel (AID 1159580);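 further: tested at 20 µM; growth read once vehicle control cultures reached saturation at 30 °C; 1 = growth at the plate median or of vehicle wells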
- details: S. cerevisiae deletion strains, growth OD, locus YJR043C, strain POL32, stronger effect = lower value
The whole screen tested about 5,500 compounds, of which about 2,000 (36%) were called active. Another 18% or so got no clear call; they are omitted. The list shows a part of the results.
Measured normalized growth of individual entries

- molecule: "COc1ccc2c(c1C(C)C)CCC1C(C)(C)C(=O)CCC21C (configuration not stated)"
  normalized growth: "0.962 (inactive)"
- molecule: "CSc1cccc(NC(=S)N=CN(C)C)c1"
  normalized growth: "0.961 (inactive)"
- molecule: "CC(C)c1c(O)c(-c2cc3c(c(C(C)C)c2O)CCC2C(C)(C)CCC[C@]32C)cc2c1CCC1C(C)(C)CCC[C@]21C (some centres not stated)"
  normalized growth: "1.03 (inactive)"
- molecule: "ON=C(c1cccs1)c1cccs1"
  normalized growth: "0.944 (inactive)"
- molecule: "NC(=O)NCC(N)C(=O)O (configuration not stated)"
  normalized growth: "1.04 (inactive)"
- molecule: "CCc1cc(C(N)=S)ccn1"
  normalized growth: "0.983 (inactive)"
- molecule: "COc1cc(/C=C(\\C#N)C(N)=S)cc(OC)c1OC"
  normalized growth: "0.986 (inactive)"

* * *

- protocol_summary: chemical genetic growth profiling, strain panel (AID 1159580);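 further: tested at 20 µM; growth read once vehicle control cultures reached saturation at 30 °C; 1 = growth at the plate median or of vehicle wells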
- details: S. cerevisiae deletion strains, growth OD, locus YKL160W, strain elf1, stronger effect = lower value
Screen size: about 5,500 compounds; about 2,000 (36%) were called active. Roughly 18% stayed inconclusive and do not appear here. The list shows a part of the results.
Measured normalized growth of individual entries

- compound: "COC1=CC(=O)C(O)=C/C1=C\\C=C\\c1ccccc1"
  normalized growth: "0.073 (active)"
- compound: "COc1ccc(-c2oc3cc(O[C@H]4O[C@H](CO)[C@@H](O)[C@H](O)[C@H]4O)c(OC)c(O)c3c(=O)c2OC)cc1O"
  normalized growth: "0.992 (inactive)"
- compound: "O=c1c(O)c(-c2ccc(O)c(O)c2)oc2c(O[C@@H]3O[C@H](CO)[C@H](O)[C@@H](O)[C@H]3O)c(O)cc(O)c12"
  normalized growth: "1 (inactive)"
- compound: "CC1(C)C(=O)C=C[C@@]2(C)C1CC(=O)[C@]1(C)C2CC[C@@]2(C)[C@H](c3ccoc3)OC(=O)[C@H]3O[C@]321 (stereo partly specified)"
  normalized growth: "0.976 (inactive)"
- compound: "O=C(OC1Cc2c(O)cc(O)cc2OC1c1cc(=O)c(O)c2c(O)c(O)cc(C3Oc4cc(O)cc(O)c4CC3O)c2c1)c1cc(O)c(O)c(O)c1 (stereo unspecified)"
  normalized growth: "0.969 (inactive)"
- compound: "O=C(Cc1cccs1)NC1C(=O)N2C(C(=O)[O-])=C(C[n+]3ccccc3)CSC12 (stereo unspecified)"
  normalized growth: "1 (inactive)"
- compound: "CC(C1OC(C)(C)C(O)C1O)[C@@H]1CC[C@]2(C)C3=CCC4C(C)(C)C(=O)CC[C@]4(C)C3CC[C@@]12C (stereo partly specified)"
  normalized growth: "0.972 (inactive)"
- compound: "CCN[C@@H]1C[C@H](N)[C@@H](O[C@H]2OC(CN)=CC[C@H]2N)[C@H](O)[C@H]1OC1OC[C@](C)(O)[C@H](NC)[C@H]1O (stereo partly specified)"
  normalized growth: "0.986 (inactive)"
- compound: "CC(C)[N+](C)(CCC(C(N)=O)(c1ccccc1)c1ccccc1)C(C)C"
  normalized growth: "0.961 (inactive)"
- compound: "CC/C(=C(/CC)c1ccc(O)cc1)c1ccc(O)cc1"
  normalized growth: "0.955 (inactive)"
- compound: "COc1ccc2ccc(=O)oc2c1"
  normalized growth: "1.02 (inactive)"
- compound: "CC1(C)C=CC(=O)[C@@]2(C)C1CC(=O)[C@]1(C)C2CC[C@@]2(C)[C@H](c3ccoc3)OC(=O)C3OC321 (stereo partly specified)"
  normalized growth: "0.987 (inactive)"
- compound: "CC1(C)O[C@H]2CC(=O)OC[C@]23[C@H]2CC[C@@]4(C)[C@H](c5ccoc5)OC(=O)[C@H]5O[C@]54[C@]2(C)C(=O)C[C@@H]13"
  normalized growth: "1 (inactive)"
- compound: "COc1cc(OC)c2c(=O)c(O)c(-c3ccc(OC)c(OC)c3)oc2c1"
  normalized growth: "0.922 (inactive)"
- compound: "CC1(C)C(=O)C=C[C@@]2(C)C1C=C[C@]1(C)C2CC[C@@]2(C)[C@H](c3ccoc3)OC(=O)C3OC321 (stereo partly specified)"
  normalized growth: "0.973 (inactive)"
- compound: "CC(C)c1c(O)ccc2c1CCC1C(C)(C)CCC[C@]21C (stereo partly specified)"
  normalized growth: "0.729 (active)"
- compound: "O=c1c(O)c(-c2ccc(O)c(O)c2)oc2c(O)c(O)cc(O)c12"
  normalized growth: "0.942 (inactive)"
- compound: "COc1ccc(-c2oc3c(CC=C(C)C)c(O[C@@H]4O[C@H](CO)[C@@H](O)[C@H](O)[C@H]4O)cc(O)c3c(=O)c2O[C@@H]2O[C@@H](C)[C@H](O)[C@@H](O)[C@H]2O)cc1"
  normalized growth: "1 (inactive)"
- compound: "CC1(C)C(=O)C=C[C@@]2(C)C1C[C@@H](O)[C@]1(C)C2CC[C@@]2(C)[C@H](c3ccoc3)OC(=O)[C@H]3O[C@]321 (stereo partly specified)"
  normalized growth: "1 (inactive)"
- compound: "CCCCOc1cc(C(=O)NCCN(CC)CC)c2ccccc2n1"
  normalized growth: "0.964 (inactive)"
- compound: "O=c1c(O)c(-c2ccc(O)cc2O)oc2cc(O)cc(O)c12"
  normalized growth: "0.989 (inactive)"
- compound: "NC(N)=NC(=O)c1nc(Cl)c(N)nc1N"
  normalized growth: "1.02 (inactive)"
- compound: "COc1cc2occc2c2oc(=O)ccc12"
  normalized growth: "1.01 (inactive)"
- compound: "COC(=O)c1c(C)cc(OC)cc1O"
  normalized growth: "0.971 (inactive)"
- compound: "C[C@]12CCC3c4ccc(O)cc4CCC3C1C[C@@H](O)[C@@H]2O (stereo partly specified)"
  normalized growth: "1.05 (inactive)"
- compound: "CN[C@@H]1[C@@H](O)C(OC2[C@@H](N)C[C@@H](N)[C@H](O[C@H]3O[C@H](C(C)O)[C@@H](O)[C@H](O)[C@H]3N)[C@H]2O)OC[C@]1(C)O (stereo partly specified)"
  normalized growth: "0.988 (inactive)"
- compound: "COc1ccc2c(c1)CCC1C2CCC2(C)C1C[C@@H](O)C2O (stereo partly specified)"
  normalized growth: "0.958 (inactive)"
- compound: "CCOC(=O)c1c(C)cc(OC)cc1O"
  normalized growth: "0.976 (inactive)"
- compound: "C[C@@H]1O[C@@H](OC[C@H]2OC(Oc3c(-c4ccc(OCCO)c(OCCO)c4)oc4cc(OCCO)cc(O)c4c3=O)[C@H](O)[C@@H](O)[C@@H]2O)[C@H](O)[C@H](O)[C@H]1O (stereo partly specified)"
  normalized growth: "0.986 (inactive)"
- compound: "O=c1ccc2c(O)c3ccoc3cc2o1"
  normalized growth: "0.993 (inactive)"
- compound: "CC(C)N(CCC(C(N)=O)(c1ccccc1)c1ccccn1)C(C)C (stereo unspecified)"
  normalized growth: "0.139 (active)"
- compound: "CCN(Cc1ccncc1)C(=O)C(CO)c1ccccc1 (stereo unspecified)"
  normalized growth: "1.02 (inactive)"
- compound: "CCCCC1C(=O)N(c2ccccc2)N(c2ccc(O)cc2)C1=O (stereo unspecified)"
  normalized growth: "1.03 (inactive)"
- compound: "C[C@]12CCC3c4ccc(OS(=O)(=O)O)cc4CCC3C1CC[C@H]2O (stereo partly specified)"
  normalized growth: "0.923 (inactive)"
- compound: "CO[C@@]1(NC(=O)C(C(=O)O)c2ccc(O)cc2)C(=O)N2C(C(=O)O)=C(CSc3nnnn3C)CO[C@@H]21 (stereo partly specified)"
  normalized growth: "0.962 (inactive)"
- compound: "OCC(O)C(O)C(O)C(O)C(O)CO (stereo unspecified)"
  normalized growth: "1.01 (inactive)"
